Provide the reported IC50 of each item.
target: recombinant human NF-kappaB-inducing kinase (NIK/MAP3K14) (Homo sapiens (Human), UniProt Q99558); experiment: Inhibition of auto-phosphorylation of recombinant human NIK/MAP3K14 (AlphaScreen); conditions: NIK auto-phosphorylation, 5 μM ATP, 1 nM NIK, 2 h at 25° C.; average of values
Sequence (Q99558 whole entry): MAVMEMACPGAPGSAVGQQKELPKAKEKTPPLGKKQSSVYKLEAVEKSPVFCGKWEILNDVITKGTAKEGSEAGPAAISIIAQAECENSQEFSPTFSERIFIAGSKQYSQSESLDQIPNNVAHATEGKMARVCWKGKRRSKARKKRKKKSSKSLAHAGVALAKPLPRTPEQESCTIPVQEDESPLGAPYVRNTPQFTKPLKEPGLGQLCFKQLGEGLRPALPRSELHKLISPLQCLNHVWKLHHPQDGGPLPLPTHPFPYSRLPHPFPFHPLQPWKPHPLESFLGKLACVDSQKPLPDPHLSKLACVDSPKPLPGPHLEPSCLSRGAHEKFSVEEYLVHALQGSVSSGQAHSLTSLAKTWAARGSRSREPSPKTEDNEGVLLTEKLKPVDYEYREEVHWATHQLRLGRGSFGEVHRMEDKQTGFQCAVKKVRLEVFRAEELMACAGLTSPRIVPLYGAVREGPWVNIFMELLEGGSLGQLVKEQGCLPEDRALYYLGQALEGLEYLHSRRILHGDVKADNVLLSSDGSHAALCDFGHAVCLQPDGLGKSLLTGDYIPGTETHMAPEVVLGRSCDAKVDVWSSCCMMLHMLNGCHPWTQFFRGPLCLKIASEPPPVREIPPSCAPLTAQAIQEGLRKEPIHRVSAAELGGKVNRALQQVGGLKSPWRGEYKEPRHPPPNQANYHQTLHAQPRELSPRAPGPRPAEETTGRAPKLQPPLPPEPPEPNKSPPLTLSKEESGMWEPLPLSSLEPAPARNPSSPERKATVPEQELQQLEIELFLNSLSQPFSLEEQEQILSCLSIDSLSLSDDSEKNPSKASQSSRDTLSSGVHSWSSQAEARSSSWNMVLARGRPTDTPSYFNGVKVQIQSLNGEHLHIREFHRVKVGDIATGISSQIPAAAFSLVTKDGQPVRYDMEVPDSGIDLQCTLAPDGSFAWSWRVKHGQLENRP
Answer with a number only, understood to be in nM.

For `Cc1nc(-c2cccc(C#C[C@]3(O)CCN(C)C3=O)c2)nc2c(N)nccc12` , what is its reported IC50?
0.6

Now try `Cc1cc(C#C[C@]2(O)CCN(C)C2=O)cc(-c2ncc3ccnc(N)c3n2)c1` .
1.3

Here is the next molecule: `CN1CC[C@@](O)(C#Cc2cccc(N3CCc4ccnc(N)c4C3)c2)C1=O`
1.2

How about `CN1CC[C@@](O)(C#Cc2cccc(-c3ccc4ncnc(N5CC(C#N)C5)c4n3)c2)C1=O` ?
7.4

Check `C[C@@](O)(C#Cc1cccc(-c2cnc3ncnc(N)c3c2)c1)c1nccs1` too.
7.6
